experiment notes: gradient 5% acetonitrile 3 min, to 50% in 2 min, to 85% in 15 min, held 3 min, 100 µL/min
setup conditions: column: Zorbax Extend-C18 2.1 x 50 mm; eluents: water / acetonitrile, 0.1% formic acid
readout: RP-LC retention time (s)

{"molecule": "CCn1c(=O)c(Nc2ccc(C)c(Cl)c2)nc2ccncc21", "RP-LC retention time [s]": 649}
{"molecule": "Cc1cccc(S(=O)(=O)N2C[C@@H]3CN(S(=O)(=O)c4c(C)noc4C)C[C@H](C2)O3)c1", "RP-LC retention time [s]": 920}
{"molecule": "CCc1nn2c(N3CCN(c4ccccn4)CC3)cc(C)nc2c1-c1ccccc1", "RP-LC retention time [s]": 670}
{"molecule": "Cc1cccc(-c2noc(Cn3ccn(-c4ccccc4)c(=O)c3=O)n2)c1", "RP-LC retention time [s]": 838}

[1] O=C1NCCCn2cc(S(=O)(=O)N3CCN(c4cccc(C(F)(F)F)c4)CC3)cc21
[2] CCCS(=O)(=O)N1CCC(N2C[C@H](OC)[C@@H]2c2cccnc2)CC1
[3] CC1CCC(NC(=O)c2cc3sc(Cl)cc3n2C)CC1 (stereo not given)
Order the records so the highest RP-LC retention time appears first and the lowest last. Please list the labels according to the requested order.
3, 1, 2

[a] O=C(Cn1nc2c(N3CCc4ccccc4C3)nccn2c1=O)Nc1ccccc1Cl
[b] COCc1cc(=O)n(CC(=O)Nc2ccc(C)cc2C)c(N)n1
Returns the identifier with the smallest measured RP-LC retention time among a and b . Kindly give the label for the entry you pick.
b
(b: 584 s, a: 896 s)

---

experiment notes: gradient 5% acetonitrile 3 min, to 50% in 2 min, to 85% in 15 min, held 3 min, 100 µL/min
setup conditions: column: Zorbax Extend-C18 2.1 x 50 mm; eluents: water / acetonitrile, 0.1% formic acid
readout: RP-LC retention time (s)

[1] CN(c1cccc(C(F)(F)F)c1)S(=O)(=O)c1cc2n(c1)CCCNC2=O
[2] Cc1cc(C)cc(-n2c(-c3ccc(Cl)cc3)cn3c4c(=O)n(C)c(=O)n(C)c4nc23)c1
Given 1 and 2 , report the one with the higher recorded RP-LC retention time. Kindly give the label for the entry you pick.
2

---

experiment notes: gradient 5% acetonitrile 3 min, to 50% in 2 min, to 85% in 15 min, held 3 min, 100 µL/min
setup conditions: column: Zorbax Extend-C18 2.1 x 50 mm; eluents: water / acetonitrile, 0.1% formic acid
readout: RP-LC retention time (s)

Solved cases (7 shown):
{"molecule": "Cc1ccc(-c2noc(C3CC3)n2)cc1S(=O)(=O)N1CCC(C(=O)Nc2nccs2)CC1", "RP-LC retention time [s]": 937}
{"molecule": "COc1cc(NC(=O)Cn2c(=O)n(-c3ccccc3)c(=O)c3c2cc(C)n3C)cc(OC)c1", "RP-LC retention time [s]": 804}
{"molecule": "CC(C)(C)n1nc2c(c1NC(=O)c1cccs1)CS(=O)(=O)C2", "RP-LC retention time [s]": 690}
{"molecule": "Cc1cc(-c2nnc(-c3ccccc3)o2)c(C)n1CC(=O)Nc1cc(F)ccc1F", "RP-LC retention time [s]": 994}
{"molecule": "CCN1CCN(CCNC(=O)Cc2cccn2-c2ccc(Cl)cc2)CC1", "RP-LC retention time [s]": 612}
{"molecule": "CCc1onc(C)c1C1CCCN1C(=O)Nc1ccc(C)c(F)c1 (centres undefined)", "RP-LC retention time [s]": 879}
{"molecule": "CCn1ncc(NC(=O)CCc2ccccc2)c(N2CCOCC2)c1=O", "RP-LC retention time [s]": 800}

[1] Cc1nn(-c2ccccc2)c(C)c1S(=O)(=O)N1CCC(C(=O)Nc2cccc(F)c2)CC1
[2] O=C(c1cccnc1)N1CCCC(c2n[nH]c(C3CC3)n2)C1 (centres undefined)
Returns the identifier with the smallest measured RP-LC retention time among 1 and 2 . Kindly give the label for the entry you pick.
2
(2: 486 s, 1: 986 s)

---

experiment notes: gradient 5% acetonitrile 3 min, to 50% in 2 min, to 85% in 15 min, held 3 min, 100 µL/min
setup conditions: column: Zorbax Extend-C18 2.1 x 50 mm; eluents: water / acetonitrile, 0.1% formic acid
readout: RP-LC retention time (s)

Solved cases (6 shown):
{"molecule": "COc1ccc(-c2[nH]ncc2CN2CCC3(CCC3O)CC2)cc1 (stereo not given)", "readout": "RP-LC retention time", "observed": 584}
{"molecule": "CSc1ccc(-c2noc(CN3C(=O)COc4cc(C)ccc43)n2)cc1", "readout": "RP-LC retention time", "observed": 1130}
{"molecule": "CCC(CC)C(=O)N1CCC2(CC1)C(=O)N(C)c1ccccc12", "readout": "RP-LC retention time", "observed": 850}
{"molecule": "O=C(C1CCC1)N1CCC(c2noc(-c3ccncc3)n2)C1 (stereo not given)", "readout": "RP-LC retention time", "observed": 693}
{"molecule": "COc1cn(CC(=O)NCc2ccco2)c(CO)cc1=O", "readout": "RP-LC retention time", "observed": 544}
{"molecule": "Cc1cc(Cl)ccc1S(=O)(=O)NC1CCc2nn(C)c(=O)n2CC1 (stereo not given)", "readout": "RP-LC retention time", "observed": 708}

[a] CCn1c(=O)c(-c2noc(C(=O)N3CCN(c4ccccn4)CC3)n2)nn(-c2ccc(F)cc2)c1=O
[b] O=S1(=O)C[C@H](N2CCN(c3ccccn3)CC2)[C@@H](S(=O)(=O)c2ccc(F)cc2)C1
Given a and b , report the one with the higher recorded RP-LC retention time. Kindly give the label for the entry you pick.
b

---

experiment notes: gradient 5% acetonitrile 3 min, to 50% in 2 min, to 85% in 15 min, held 3 min, 100 µL/min
setup conditions: column: Zorbax Extend-C18 2.1 x 50 mm; eluents: water / acetonitrile, 0.1% formic acid
readout: RP-LC retention time (s)

{"compound": "CCCN(C)C(=O)c1ccc2nc(-c3ccccc3)cn2c1", "RP-LC retention time (s)": 618}
{"compound": "Cc1ccccc1Cc1nc(-c2ccc3c(c2)nnn3CCN2CCOCC2)no1", "RP-LC retention time (s)": 692}
{"compound": "O=C(CCC(=O)N1CCN(C(c2ccccc2)c2ccccc2)CC1)Nc1noc2ccccc12", "RP-LC retention time (s)": 718}
{"compound": "CCOC(=O)Cn1c(C2CC(=O)N(c3cccc(Cl)c3)C2)nc2ccccc21 (stereo not given)", "RP-LC retention time (s)": 872}
{"compound": "O=C(c1cccs1)N1CCCCC1c1nc(-c2ccncc2)no1 (stereo not given)", "RP-LC retention time (s)": 818}

---

experiment notes: gradient 5% acetonitrile 3 min, to 50% in 2 min, to 85% in 15 min, held 3 min, 100 µL/min
setup conditions: column: Zorbax Extend-C18 2.1 x 50 mm; eluents: water / acetonitrile, 0.1% formic acid
readout: RP-LC retention time (s)

Solved cases (5 shown):
{"compound": "COc1ccc(-c2nnc(-c3ccccc3Cl)o2)cc1S(=O)(=O)N1CCCCC1", "unit tag": "s", "RP-LC retention time": 1060}
{"compound": "Cc1oc(-c2cccc(Cl)c2)nc1CN(c1ccccc1)S(=O)(=O)c1cccs1", "unit tag": "s", "RP-LC retention time": 1260}
{"compound": "CCOC(=O)c1cccc(NC2=NS(=O)(=O)c3ccccc32)c1", "unit tag": "s", "RP-LC retention time": 839}
{"compound": "Cc1ccc(N2N=NC3C(=O)N(c4cccc(Cl)c4)C(=O)C32)cc1F (stereo not given)", "unit tag": "s", "RP-LC retention time": 1060}
{"compound": "CN(C)c1cccc(C(=O)Nc2cc(-c3cccs3)no2)c1", "unit tag": "s", "RP-LC retention time": 970}

[1] CCOc1ccc(NC(=O)Cn2c(=O)n(-c3ccccc3)c(=O)c3c2cc(C)n3C)cc1
[2] COCCCNC(=O)c1ccc2c(c1)nc1n2CCCCC1
Returns the identifier with the smallest measured RP-LC retention time among 1 and 2 . Kindly give the label for the entry you pick.
2
(2: 566 s, 1: 832 s)

---

experiment notes: gradient 5% acetonitrile 3 min, to 50% in 2 min, to 85% in 15 min, held 3 min, 100 µL/min
setup conditions: column: Zorbax Extend-C18 2.1 x 50 mm; eluents: water / acetonitrile, 0.1% formic acid
readout: RP-LC retention time (s)

Solved cases (5 shown):
{"molecule": "COc1cc(OC)c(NC(=O)N2CCOc3ccccc32)cc1Cl", "unit tag": "s", "RP-LC retention time": 1010}
{"molecule": "CC(=O)Nc1ccc(C(=O)N2CCC3(CC2)N=C(c2cccc(Br)c2)NO3)cc1", "unit tag": "s", "RP-LC retention time": 731}
{"molecule": "O=C(NCCS(=O)(=O)N1CCN(c2ncccn2)CC1)c1cc2ccccc2o1", "unit tag": "s", "RP-LC retention time": 727}
{"molecule": "O=C(c1cccc(Cl)c1)N1CCC2(C1)NC(=O)N(Cc1ccc(F)cc1)C2=O (centres undefined)", "unit tag": "s", "RP-LC retention time": 820}
{"molecule": "CN(C)c1ccc(-c2noc(-c3nc(-c4ccccc4F)no3)n2)cc1", "unit tag": "s", "RP-LC retention time": 1250}

[A] O=C(NCc1ccco1)c1ccc(Nc2c(-c3ccccc3)nc3cnccn23)cc1
[B] O=C(C1CCN(c2nc3ccc(-c4cccc(F)c4)nc3s2)CC1)N1CCCCC1
Given A and B , report the one with the higher recorded RP-LC retention time. Kindly give the label for the entry you pick.
B
(B: 1070 s, A: 733 s)

[A] Cc1ccc(NC(=O)Cn2c(-c3cnccn3)nc(C)c(C)c2=O)cc1F
[B] CCCCn1c(=O)c2ccccc2n(Cc2nc(-c3cccc(Br)c3)no2)c1=O
Returns the identifier with the smallest measured RP-LC retention time among A and B . Kindly give the label for the entry you pick.
A
